// provenance: paper PMC12040169

- Protocol: in vitro
- Parameters: Viability of infected HeLa host cells, resazurin conversion, bulk resorufin fluorescence relative to DMSO
- Setup Conditions: human, hela cells; bulk resorufin, mean of 2
Observable: viability at 28.5 h, 1 µM (%)
Give the value in % but do not write % after it.

Molecule: COc1ccccc1N/C(=N\OCc1ccc(Cl)cc1Cl)c1nonc1N
viability at 28.5 h, 1 µM [%]: 90.7

-- ask Supply viability at 28.5 h, 1 µM value. Item: Cc1cc(Br)ccc1S(=O)(=O)N(C)c1ccc(N2CCNCC2)c2ccccc12 [CBK016170C]
-- reply 91.8

-- ask Give recorded viability at 28.5 h, 1 µM. CCOc1ccsc1C(=O)Nc1cc(C)ccn1
-- reply 92.3

-- ask Please look at this molecule and report its viability at 28.5 h, 1 µM: CC(C(=O)N1CCC2(CC1)NC(=O)c1ccccc1N2)(c1ccccc1)c1ccccc1
-- reply 97.7

-- ask Using known records, supply viability at 28.5 h, 1 µM for OCCNc1nc(Nc2ccc(Br)cc2)nc2ccccc12 [CBK266724C]
-- reply 122
